- Tested on: SARS-CoV-2 860-J1 (Delta)
- ASSAY_PROTOCOL: Cytopathic effect reduction, SARS-CoV-2 860-J1 (Delta) in Vero cells
- Type: cell-based
- EXPERIMENTAL_SETUP: Severe acute respiratory syndrome coronavirus 2, CPE reduced by 50%, 100 TCID50, read-out: Antiviral Activity (EC50) 860-J1 (Delta)
REPORTED_ENDPOINT: pEC50
Reminder that pEC50 means the negative base-10 logarithm of the concentration expressed in mol/L.

As a guide, the following entries are already answered.
[
  {
    "COMPOUND": "CC(C)C(=O)OC[C@H]1O[C@@H](n2ccc(NO)nc2=O)[C@H](O)[C@@H]1O",
    "pEC50": 5.24
  },
  {
    "COMPOUND": "COc1ccc(C(OC[C@H]2O[C@@H](n3ccc4nc5cc(O)ccc5n4c3=O)C[C@@H]2O)(c2ccccc2)c2ccc(OC)cc2)cc1",
    "pEC50": 4.95
  }
]

// next item, pEC50 requested
[Q] // Input: CCC(CC)COC(=O)[C@H](C)N[P@](=O)(OC[C@H]1O[C@@](C#N)(c2ccc3c(N)ncnn23)[C@H](O)[C@@H]1O)Oc1ccccc1 [Remdesivir, reference compound] . Output its pEC50 only.
[A] 5.49

* * *

- System: Huh7 cells
- ASSAY_PROTOCOL: Cytotoxicity in Huh7 cells, MTS assay
- Format: cell-based, Human
- EXPERIMENTAL_SETUP: cell growth reduced by 50%
REPORTED_ENDPOINT: CC50

As a guide, the following entries are already answered.
[
  {
    "COMPOUND_STRUCTURE_STRING": "CCCCCCCCCCOc1ccc2c(c1)nc1ccn([C@H]3C[C@H](O)[C@@H](COC(c4ccccc4)(c4ccc(OC)cc4)c4ccc(OC)cc4)O3)c(=O)n12",
    "VAL": "> 40 µM"
  },
  {
    "COMPOUND_STRUCTURE_STRING": "CCCCCCOc1ccc2c(c1)nc1ccn([C@H]3C[C@H](O)[C@@H](COC(c4ccccc4)(c4ccc(OC)cc4)c4ccc(OC)cc4)O3)c(=O)n12",
    "VAL": "> 100 µM"
  },
  {
    "COMPOUND_STRUCTURE_STRING": "CCCCCCCCCCCCOc1ccc2c(c1)nc1ccn([C@H]3C[C@H](O)[C@@H](COC(c4ccccc4)(c4ccc(OC)cc4)c4ccc(OC)cc4)O3)c(=O)n12",
    "VAL": "> 100 µM"
  },
  {
    "COMPOUND_STRUCTURE_STRING": "CCCCCCOc1ccc2c(c1)nc1ccn([C@@H]3O[C@H](COC(c4ccccc4)(c4ccc(OC)cc4)c4ccc(OC)cc4)[C@@H](O)[C@H]3O)c(=O)n12",
    "VAL": "> 10 µM"
  },
  {
    "COMPOUND_STRUCTURE_STRING": "CCCCOc1ccc2c(c1)nc1ccn([C@H]3C[C@H](O)[C@@H](COC(c4ccccc4)(c4ccc(OC)cc4)c4ccc(OC)cc4)O3)c(=O)n12",
    "VAL": "> 40 µM"
  }
]

[Q] // Input: CCCCCCCCOc1ccc2c(c1)nc1ccn([C@H]3C[C@H](O)[C@@H](COC(c4ccccc4)(c4ccc(OC)cc4)c4ccc(OC)cc4)O3)c(=O)n12 . Output its CC50 only.
[A] > 100 µM
